Value source: patent US20100215618A1

- test_protocol: in vitro
- Format: in vitro ADME, Canine
- assay_setup: dog, MDCK
Exercise: for every item that follows, state its recorded Papp at 2 h, 10 µM.
I only need the number, in nm/s, no unit after it.

Documented Papp at 2 h, 10 µM of COC(=O)N[C@H](C(=O)N1CCC[C@H]1c1ncc(-c2ccc(-c3ccc(C(=O)Nc4ccc(CN5CCS(=O)(=O)CC5)cc4)cc3)cc2)[nH]1)C(C)(C)C [Example 5] : 20

Documented Papp at 2 h, 10 µM of COC(=O)N[C@@H](C(=O)N1CCC[C@H]1c1ncc(-c2ccc(-c3ccc(C(=O)Nc4ccc(CN5CCS(=O)(=O)CC5)cc4)cc3)cc2)[nH]1)c1ccccc1 [Example 7] : 4

Documented Papp at 2 h, 10 µM of COC(=O)N[C@@H](C)C(=O)N1CCC[C@@H]1c1ncc(-c2ccc(-c3ccc(C(=O)Nc4ccc(CN5CCS(=O)(=O)CC5)cc4)cc3)cc2)[nH]1 [Example 21] : 14

Documented Papp at 2 h, 10 µM of COC(=O)N[C@@H](C(=O)N1CCC[C@H]1c1ncc(-c2ccc(-c3ccc(C(=O)Nc4ccc(CN5CCS(=O)(=O)CC5)cc4)cc3)cc2)[nH]1)C(C)C [Example 13] : 3

Documented Papp at 2 h, 10 µM of COC(=O)N[C@H](CC(C)C)C(=O)N1CCC[C@H]1c1ncc(-c2ccc(-c3ccc(C(=O)Nc4ccc(CN5CCS(=O)(=O)CC5)cc4)cc3)cc2)[nH]1 [Example 15] : 3

====

- System: HCV replicon cells Huh 9B (genotype 1b)
- test_protocol: 1b Replicon Assay (luciferase readout)
- Assay type: cell-based
- assay_setup: Hepatitis C virus; Huh 9B replicon cells, 72 h, luciferase activity; read-out: pIC50 1b Replicon (converted)
Exercise: for every item that follows, state its recorded IC50.
I only need the number, in nM, no unit after it.

Documented IC50 of COC(=O)N[C@@H](C(=O)N1CCC[C@@H]1c1ncc(-c2ccc(-c3ccc(C(=O)Nc4ccc(CN5CCS(=O)(=O)CC5)cc4)cc3)cc2)[nH]1)C(C)C [Example 27] : 15.1

Documented IC50 of CCN(CC)[C@@H](C(=O)N1CCC[C@H]1c1ncc(-c2cccc(-c3ccc(C(=O)Nc4ccc(CN5CCS(=O)(=O)CC5)cc4)cc3)c2)[nH]1)c1ccccc1 [Example 38] : 2.88

Documented IC50 of COC(=O)N[C@H](C(=O)N1CCC[C@H]1c1ncc(-c2cccc(-c3ccc(C(=O)Nc4ccc(CN5CCS(=O)(=O)CC5)cc4)cc3)c2)[nH]1)C(C)(C)C [Example 35] : 129

Documented IC50 of COC(=O)N[C@H](C(=O)N1CCC[C@H]1c1ncc(-c2ccc(-c3cccc(C(=O)Nc4ccc(CN5CCS(=O)(=O)CC5)cc4)c3)cc2)[nH]1)c1ccccc1 [Example 30] : 1.2

Documented IC50 of COC(=O)N[C@H](CC(C)C)C(=O)N1CCC[C@H]1c1ncc(-c2ccc(-c3ccc(C(=O)Nc4ccc(CN5CCS(=O)(=O)CC5)cc4)cc3)cc2)[nH]1 [Example 15] : 3.8

====

- System: HCV replicon cells Huh 9B (genotype 1b)
- test_protocol: 1b Replicon Assay (luciferase readout)
- Format: cell-based
- assay_setup: Hepatitis C virus; Huh 9B replicon cells, 72 h, luciferase activity; read-out: pIC50 1b Replicon (converted)
reported_endpoint: IC50
Please append the unit to your numeric answer.

Recorded IC50 for CCN(CC)[C@@H](C(=O)N1CCC[C@@H]1c1ncc(-c2ccc(-c3ccc(C(=O)Nc4ccc(CN5CCS(=O)(=O)CC5)cc4)cc3)cc2)[nH]1)c1ccccc1 [Example 25] on HCV replicon cells Huh 9B (genotype 1b) was 77.6 nM

Recorded IC50 for CCCS(=O)(=O)N1CCN(Cc2ccc(NC(=O)c3ccc(-c4ccc(-c5cnc([C@@H]6CCCN6C(=O)[C@H](NC(=O)OC)c6ccccc6)[nH]5)cc4)cc3)cc2)CC1 [Example 43] on HCV replicon cells Huh 9B (genotype 1b) was 0.055 nM

Recorded IC50 for CCCS(=O)(=O)N1CCN(Cc2ccc(NC(=O)c3ccc(-c4ccc(-c5cnc([C@@H]6CCCN6C(=O)[C@H](C)NC(=O)OC)[nH]5)cc4)cc3)cc2)CC1 [Example 41] on HCV replicon cells Huh 9B (genotype 1b) was 1.15 nM

Recorded IC50 for CC(C)(C)OC(=O)N[C@@H](C(=O)N1CCC[C@H]1c1ncc(-c2ccc(-c3ccc(C(=O)Nc4ccc(CN5CCS(=O)(=O)CC5)cc4)cc3)cc2)[nH]1)c1ccccc1 [Example 2] on HCV replicon cells Huh 9B (genotype 1b) was 0.0204 nM

Recorded IC50 for CN(C)[C@@H](C(=O)N1CCC[C@@H]1c1ncc(-c2ccc(-c3ccc(C(=O)Nc4ccc(CN5CCS(=O)(=O)CC5)cc4)cc3)cc2)[nH]1)c1ccccc1 [Example 26] on HCV replicon cells Huh 9B (genotype 1b) was 56.2 nM

Recorded IC50 for CCCS(=O)(=O)N1CCN(Cc2ccc(NC(=O)c3ccc(-c4ccc(-c5cnc([C@@H]6CCCN6C(=O)[C@@H](NC(=O)OC)C(C)C)[nH]5)cc4)cc3)cc2)CC1 [Example 40] on HCV replicon cells Huh 9B (genotype 1b) was 0.1 nM

Recorded IC50 for COC(=O)N[C@H](C(=O)N1CCOC[C@H]1c1ncc(-c2ccc(-c3ccc(C(=O)Nc4ccc(CN5CCS(=O)(=O)CC5)cc4)cc3)cc2)[nH]1)C(C)C [Example 46] on HCV replicon cells Huh 9B (genotype 1b) was 0.708 nM

Recorded IC50 for COC(=O)N[C@@H](CO)C(=O)N1CCC[C@H]1c1ncc(-c2ccc(-c3ccc(C(=O)Nc4ccc(CN5CCS(=O)(=O)CC5)cc4)cc3)cc2)[nH]1 [Example 11] on HCV replicon cells Huh 9B (genotype 1b) was 1.12 nM

Recorded IC50 for COC(=O)N[C@@H](C)C(=O)N1CCC[C@H]1c1ncc(-c2cccc(-c3ccc(C(=O)Nc4ccc(CN5CCS(=O)(=O)CC5)cc4)cc3)c2)[nH]1 [Example 34] on HCV replicon cells Huh 9B (genotype 1b) was 251 nM

Recorded IC50 for CCCS(=O)(=O)N1CCN(Cc2ccc(NC(=O)c3ccc(-c4ccc(-c5cnc([C@@H]6CCCN6C(=O)[C@@H](c6ccccc6)N(CC)CC)[nH]5)cc4)cc3)cc2)CC1 [Example 44] on HCV replicon cells Huh 9B (genotype 1b) was 0.0145 nM

Recorded IC50 for COC(=O)N[C@H](C(=O)N1CCC[C@@H]1c1ncc(-c2ccc(-c3ccc(C(=O)Nc4ccc(CN5CCS(=O)(=O)CC5)cc4)cc3)cc2)[nH]1)C(C)C [Example 20] on HCV replicon cells Huh 9B (genotype 1b) was 316 nM

Recorded IC50 for CCN(CC)[C@@H](C(=O)N1CCC[C@H]1c1ncc(-c2ccc(-c3ccc(C(=O)Nc4ccc(CN5CCS(=O)(=O)CC5)cc4)cc3)cc2)[nH]1)c1ccccc1 [Example 8] on HCV replicon cells Huh 9B (genotype 1b) was 0.0468 nM

Recorded IC50 for COC(=O)N[C@H](C(=O)N1CCC[C@H]1c1ncc(-c2ccc(-c3ccc(C(=O)Nc4ccc(CN5CCS(=O)(=O)CC5)cc4)cc3)cc2)[nH]1)[C@@H](C)O [Example 17] on HCV replicon cells Huh 9B (genotype 1b) was 0.302 nM

Recorded IC50 for COC(=O)N[C@H](C(=O)N1CCC[C@H]1c1ncc(-c2cccc(-c3ccc(C(=O)Nc4ccc(CN5CCS(=O)(=O)CC5)cc4)cc3)c2)[nH]1)c1ccccc1 [Example 36] on HCV replicon cells Huh 9B (genotype 1b) was 15.5 nM

Recorded IC50 for COC(=O)N[C@H](C(=O)N1CCC[C@@H]1c1ncc(-c2ccc(-c3ccc(C(=O)Nc4ccc(CN5CCS(=O)(=O)CC5)cc4)cc3)cc2)[nH]1)C(C)(C)C [Example 22] on HCV replicon cells Huh 9B (genotype 1b) was 263 nM

Recorded IC50 for COC(=O)N[C@@H](C)C(=O)N1CCC[C@H]1c1ncc(-c2ccc(-c3cccc(C(=O)Nc4ccc(CN5CCS(=O)(=O)CC5)cc4)c3)cc2)[nH]1 [Example 29] on HCV replicon cells Huh 9B (genotype 1b) was 33.1 nM

Recorded IC50 for COC(=O)N[C@@H](C)C(=O)N1CCC[C@@H]1c1ncc(-c2ccc(-c3ccc(C(=O)Nc4ccc(CN5CCS(=O)(=O)CC5)cc4)cc3)cc2)[nH]1 [Example 21] on HCV replicon cells Huh 9B (genotype 1b) was 417 nM

Recorded IC50 for CN(C)[C@@H](C(=O)N1CCOC[C@H]1c1ncc(-c2ccc(-c3ccc(C(=O)Nc4ccc(CN5CCS(=O)(=O)CC5)cc4)cc3)cc2)[nH]1)c1ccccc1 [Example 49] on HCV replicon cells Huh 9B (genotype 1b) was 0.891 nM

Recorded IC50 for COC(=O)N[C@H](C(=O)N1CCCC[C@H]1c1ncc(-c2ccc(-c3ccc(C(=O)Nc4ccc(CN5CCS(=O)(=O)CC5)cc4)cc3)cc2)[nH]1)C(C)C [Example 50] on HCV replicon cells Huh 9B (genotype 1b) was 2.95 nM

Recorded IC50 for CC[C@H](C)[C@H](NC(=O)OC)C(=O)N1CCC[C@H]1c1ncc(-c2ccc(-c3ccc(C(=O)Nc4ccc(CN5CCS(=O)(=O)CC5)cc4)cc3)cc2)[nH]1 [Example 16] on HCV replicon cells Huh 9B (genotype 1b) was 0.132 nM

Recorded IC50 for COC(=O)N[C@H](C(=O)N1CCC[C@@H]1c1ncc(-c2ccc(-c3ccc(C(=O)Nc4ccc(CN5CCS(=O)(=O)CC5)cc4)cc3)cc2)[nH]1)c1ccccc1 [Example 23] on HCV replicon cells Huh 9B (genotype 1b) was 110 nM

Recorded IC50 for CC(C)(C)OC(=O)N[C@H](C(=O)N1CCOC[C@H]1c1ncc(-c2ccc(-c3ccc(C(=O)Nc4ccc(CN5CCS(=O)(=O)CC5)cc4)cc3)cc2)[nH]1)c1ccccc1 [Example 48] on HCV replicon cells Huh 9B (genotype 1b) was 0.513 nM

Recorded IC50 for COC(=O)N[C@H](C(=O)N1CCOC[C@H]1c1ncc(-c2ccc(-c3ccc(C(=O)Nc4ccc(CN5CCS(=O)(=O)CC5)cc4)cc3)cc2)[nH]1)c1ccccc1 [Example 47] on HCV replicon cells Huh 9B (genotype 1b) was 0.275 nM
